Overview of reported EC50 Value (M), JKR9 reporter activation by peptide-loaded T2 cells across a group of binders:
target: MAGE-A1 target antigen peptide … presented by HLA-A*02:01 on cells (human); assay: cell-based or functional assay
Measured Metric: EC50 Value (M), JKR9 reporter activation by peptide-loaded T2 cells

[
  {
    "Binder": "A1A2-M01-623 (TCR, V domains shown) Valpha: GEDVEQSLFLSVREGDSSVINCTYTDSSQTYLYWYKQEPGAGLQLLTYIFIFQAMKQDQRLTVLLNKKDKHLSLRIADTQTGDSAIYFCAGSGGGTDKLIFGTGTRLQVFP Vbeta: GAVVSQHPSWVICKSGTSVKIECRSLDFEATTMFWYRQFPKQSLMLMATTDYGSKATYEQGVEKDKFLINHASLTLSTLTVTSAHPEDSSFYICSAREPGQGPWEQYFGPGTRLTVT",
    "Assay Value": "3.06e-08 M"
  },
  {
    "Binder": "A1A2-M01-614 (TCR, V domains shown) Valpha: GEDVEQSLFLSVREGDSSVINCTYSDMLSTYLYWYKQEPGAGLQLLTYIFIFQAMKQDQRLTVLLNKKDKHLSLRIADTQTGDSAIYFCAGSGGGTDKLIFGTGTRLQVFP Vbeta: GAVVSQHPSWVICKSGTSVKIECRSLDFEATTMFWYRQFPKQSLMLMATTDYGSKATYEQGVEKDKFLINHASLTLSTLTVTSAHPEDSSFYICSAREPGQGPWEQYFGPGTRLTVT",
    "Assay Value": "2.94e-08 M"
  },
  {
    "Binder": "A1A2-M01-621 (TCR, V domains shown) Valpha: GEDVEQSLFLSVREGDSSVINCTYTDSEFTYLYWYKQEPGAGLQLLTYIFAFESMKQDQRLTVLLNKKDKHLSLRIADTQTGDSAIYFCAGSGGGTDKLIFGTGTRLQVFP Vbeta: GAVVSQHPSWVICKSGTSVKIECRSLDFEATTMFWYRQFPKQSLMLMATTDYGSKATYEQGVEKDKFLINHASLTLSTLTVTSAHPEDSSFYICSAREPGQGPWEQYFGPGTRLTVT",
    "Assay Value": "3.57e-08 M"
  },
  {
    "Binder": "A1A2-M01-622 (TCR, V domains shown) Valpha: GEDVEQSLFLSVREGDSSVINCTYTDSSSTYLYWYKQEPGAGLQLLTYIFAFESMKQDQRLTVLLNKKDKHLSLRIADTQTGDSAIYFCAGSGGGTDKLIFGTGTRLQVFP Vbeta: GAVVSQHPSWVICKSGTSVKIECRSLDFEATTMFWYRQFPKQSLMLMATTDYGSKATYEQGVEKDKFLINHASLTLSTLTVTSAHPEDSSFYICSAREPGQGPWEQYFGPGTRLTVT",
    "Assay Value": "1.76e-08 M"
  },
  {
    "Binder": "A1A2-M01-625 (TCR, V domains shown) Valpha: GEDVEQSLFLSVREGDSSVINCTYTDSSMTYLYWYKQEPGAGLQLLTYIFAFESMKQDQRLTVLLNKKDKHLSLRIADTQTGDSAIYFCAGSGGGTDKLIFGTGTRLQVFP Vbeta: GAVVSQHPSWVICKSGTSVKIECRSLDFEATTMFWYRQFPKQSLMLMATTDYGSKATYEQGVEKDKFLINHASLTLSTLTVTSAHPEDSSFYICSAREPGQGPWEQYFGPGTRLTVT",
    "Assay Value": "3.52e-08 M"
  }
]
